Measured Log SOSIP of individual entries
- Tested on: Escherichia coli
- EXPERIMENT NOTES: Genotoxicity (SOSIP) on Escherichia coli PQ37 (SOS induction potential data, as a measure of genotoxicity)
- Assay type: functional

In the examples that follow, each entry is paired with its recorded Log SOSIP.
{"columns": ["SMILES STRING", "Log SOSIP"],
 "data": [
  ["Cc1c([N+](=O)[O-])oc2cc3ccccc3cc12", 3.34],
  ["COc1ccc2oc(-c3ccc([N+](=O)[O-])o3)cc2c1", 3.08],
  ["COc1ccc2ccc3oc([N+](=O)[O-])cc3c2c1OC", 4.2],
  ["COc1ccc2oc([N+](=O)[O-])cc2c1", 1.89],
  ["COc1cc2cc([N+](=O)[O-])oc2c2ccccc12", 3.45],
  ["COc1ccc2c(ccc3oc([N+](=O)[O-])c(C)c32)c1", 4.7],
  ["CC(=O)c1ccc2c(ccc3oc([N+](=O)[O-])cc32)c1", 3.72],
  ["O=[N+]([O-])c1cc2cc(Cl)c3ccccc3c2o1", 2.97],
  ["Cc1c([N+](=O)[O-])oc2c3c(ccc12)CCCC3", 3.28],
  ["O=[N+]([O-])c1cc2cc3ccc4cccc5ccc(c2o1)c3c45", 3.72]
]}

Please examine the following record next.
Consider COc1cc2oc([N+](=O)[O-])cc2c2ccccc12 . Its measured Log SOSIP is 3.86

###

- Test system: Salmonella typhimurium
- EXPERIMENT NOTES: Mutagenicity in Salmonella Typhimurium TA98 was determined
- Format: functional, Salmonella enterica subsp. enterica serovar Typhimurium
The reader will find reported Log TA98 values listed item by item below.
Output spec: single numeric token, no unit.

The following molecules have reported results that may help.
{"columns": ["SMILES STRING", "MEASURE NAME", "RESULT"],
 "data": [
  ["O=[N+]([O-])c1cc2ccc3c(c2o1)CCCC3", "Log TA98", 2.59],
  ["COc1cc2oc([N+](=O)[O-])cc2c2ccccc12", "Log TA98", 3.28],
  ["COc1ccc2oc([N+](=O)[O-])cc2c1", "Log TA98", 1.74],
  ["CCc1c([N+](=O)[O-])oc2ccc3ccccc3c12", "Log TA98", 4.18],
  ["COc1ccc2ccc3oc([N+](=O)[O-])cc3c2c1", "Log TA98", 4.75]
]}

Entry COc1cc2ccccc2c2cc([N+](=O)[O-])oc12 ; assay system Salmonella typhimurium; Log TA98 recorded at 4.2

Log: Salmonella typhimurium, molecule COc1cccc2cc3cc([N+](=O)[O-])oc3cc12 , Log TA98 = 3.44

Assay Salmonella typhimurium, sample Cc1c([N+](=O)[O-])oc2ccc3c(c12)CCCC3 , Log TA98 read: 3.08

Salmonella typhimurium assay, molecule O=[N+]([O-])c1cc2c3c(ccc2o1)CCCC3 , recorded Log TA98 = 2.11

###

- System: Escherichia coli
- EXPERIMENT NOTES: Genotoxicity (SOSIP) on Escherichia coli PQ37 (SOS induction potential data, as a measure of genotoxicity)
- Format: functional
MEASURE NAME: Log SOSIP
Give a plain numeric answer without units written out.

{"columns": ["SMILES STRING", "RESULT"],
 "data": [
  ["Cc1ccc2c(ccc3oc([N+](=O)[O-])cc32)c1", 3.95],
  ["CCOC(=O)COc1ccc2c(ccc3oc([N+](=O)[O-])cc32)c1", 3.18],
  ["O=[N+]([O-])c1cc2c(ccc3cc(Br)ccc32)o1", 4.64]
]}

With those in mind, consider the next compound.
Measured Log SOSIP, COc1ccc2cc3c(ccc4oc([N+](=O)[O-])cc43)cc2c1 : 4.77

These measurements were taken from ChEMBL document CHEMBL1126635.
